inhibition at 0.93 µM by entry:
- ASSAYED_TARGET: PI3Kα (Homo sapiens)
- Construct: N-terminal His6-tagged recombinant full-length human p110α; His6 (N); purchased Millipore 14-602; host or cells: baculovirus infected Sf21 insect cells
- PROTOCOL_DETAILS: PI3Kα kinase assay (HTRF-based PI3K inhibition assay)
- Format: biochemical
- TEST_CONTEXT: 0.93 μM compound; read-out: PI3K alpha average % Inhibition at 0.93 μM
RECORDED_METRIC: inhibition at 0.93 µM (%)

MOLECULE	RECORDED_METRIC	RESULT
C[C@@H]1CN(C[C@@](C)(O)COc2ccc3c(c2OCCc2ccc(F)cc2)N=C(NC(=O)c2cnc(N)nc2)N2CCN=C32)C[C@H](C)O1 (relative stereo)	inhibition at 0.93 µM	109
O=C(NC1=Nc2c(ccc(OCC(O)CN3CCOCC3)c2OCCc2ccc(F)cc2)C2=NCCN12)c1cccnc1 (stereo not drawn)	inhibition at 0.93 µM	98.8
CC(C)N(C[C@@H](O)COc1ccc2c(c1OCCc1ccc(F)cc1)N=C(NC(=O)c1cccnc1)N1CCN=C21)C(C)C	inhibition at 0.93 µM	91.5
COc1c(OC[C@](C)(O)CN2C[C@@H](C)O[C@@H](C)C2)ccc2c1N=C(NC(=O)c1cccnc1)N1CCN=C21 (relative stereo)	inhibition at 0.93 µM	93.2
C[C@@H]1CN(C[C@@H](O)COc2ccc3c(c2OCCc2ccc(F)cc2)N=C(NC(=O)c2cccnc2)N2CCN=C32)C[C@H](C)O1	inhibition at 0.93 µM	99.9
C[C@@H]1CN(C[C@@](C)(O)COc2ccc3c(c2OCCc2ccc(F)cc2)N=C(NC(=O)c2cccnc2)N2CCN=C32)C[C@H](C)O1 (relative stereo)	inhibition at 0.93 µM	104

---

pIC50 by entry:
- ASSAYED_TARGET: PI3Kα (Homo sapiens, UniProt P42336)
- Construct: N-terminal His6-tagged recombinant full-length human p110α; His6 (N); purchased Millipore 14-602; host or cells: baculovirus infected Sf21 insect cells
- Sequence (P42336 whole entry, one chain of several): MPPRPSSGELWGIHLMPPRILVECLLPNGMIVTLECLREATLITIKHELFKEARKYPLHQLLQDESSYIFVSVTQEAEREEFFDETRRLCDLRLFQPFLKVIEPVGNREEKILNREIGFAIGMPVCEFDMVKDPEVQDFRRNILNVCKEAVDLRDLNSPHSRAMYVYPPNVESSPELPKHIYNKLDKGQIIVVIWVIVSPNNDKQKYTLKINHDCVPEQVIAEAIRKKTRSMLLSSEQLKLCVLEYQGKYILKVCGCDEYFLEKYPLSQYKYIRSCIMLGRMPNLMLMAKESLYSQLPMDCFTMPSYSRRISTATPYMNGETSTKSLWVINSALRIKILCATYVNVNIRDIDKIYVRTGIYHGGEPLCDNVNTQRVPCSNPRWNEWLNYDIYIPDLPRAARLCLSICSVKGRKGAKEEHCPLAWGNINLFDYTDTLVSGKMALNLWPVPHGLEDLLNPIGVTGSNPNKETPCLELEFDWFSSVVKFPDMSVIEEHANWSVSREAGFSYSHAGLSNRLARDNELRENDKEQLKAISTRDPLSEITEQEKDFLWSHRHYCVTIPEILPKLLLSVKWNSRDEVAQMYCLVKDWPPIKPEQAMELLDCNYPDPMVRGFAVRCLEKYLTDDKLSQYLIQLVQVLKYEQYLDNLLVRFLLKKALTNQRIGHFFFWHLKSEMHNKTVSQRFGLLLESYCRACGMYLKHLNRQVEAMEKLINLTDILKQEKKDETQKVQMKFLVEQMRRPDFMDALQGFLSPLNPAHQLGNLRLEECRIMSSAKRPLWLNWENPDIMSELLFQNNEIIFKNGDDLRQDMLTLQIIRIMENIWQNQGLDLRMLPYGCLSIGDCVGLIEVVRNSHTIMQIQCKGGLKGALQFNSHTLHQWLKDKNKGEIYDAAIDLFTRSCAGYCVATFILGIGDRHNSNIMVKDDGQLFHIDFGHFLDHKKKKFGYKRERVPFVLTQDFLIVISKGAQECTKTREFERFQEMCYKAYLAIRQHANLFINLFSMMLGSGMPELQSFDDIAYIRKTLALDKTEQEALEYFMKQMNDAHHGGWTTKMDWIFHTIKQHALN
- PROTOCOL_DETAILS: PI3Kα kinase assay (HTRF-based PI3K inhibition assay)
- Format: biochemical
- TEST_CONTEXT: complex of human p110α and human p85α; 10 μM ATP, 10 μM PIP2; read-out: average IC50 in the PI3K alpha biochemical assay
- Excerpt: Determination of % Inhibition and IC50 Values of Compounds in PI3Kα Kinase Assay PI3Kα inhibitory activity of compounds of the present invention was quantified employing the HTRF-based PI3K inhibition assay as described below. As reagents for the kinase reaction itself and the quantification of the reaction product, the PI3-Kinase HTRF Assay kit from Millipore (#33-017) was used. […]
pIC50: −log10 of the molar value.

COMPOUND	pIC50
COc1c(OC[C@](C)(O)CN2C[C@@H](C)O[C@@H](C)C2)ccc2c1N=C(NC(=O)c1cccnc1)N1CCN=C21 (relative stereo)	> 8.00
CC(C)N(C[C@@H](O)COc1ccc2c(c1OCCc1ccc(F)cc1)N=C(NC(=O)c1cccnc1)N1CCN=C21)C(C)C	> 8.00
C[C@@H]1CN(C[C@@](C)(O)COc2ccc3c(c2OCCc2ccc(F)cc2)N=C(NC(=O)c2cnc(N)nc2)N2CCN=C32)C[C@H](C)O1 (relative stereo)	> 8.00
C[C@@H]1CN(C[C@@](C)(O)COc2ccc3c(c2OCCc2ccc(F)cc2)N=C(NC(=O)c2cccnc2)N2CCN=C32)C[C@H](C)O1 (relative stereo)	7.30 to 8.00
C[C@@H]1CN(C[C@@H](O)COc2ccc3c(c2OCCc2ccc(F)cc2)N=C(NC(=O)c2cccnc2)N2CCN=C32)C[C@H](C)O1	7.30 to 8.00
O=C(NC1=Nc2c(ccc(OCC(O)CN3CCOCC3)c2OCCc2ccc(F)cc2)C2=NCCN12)c1cccnc1 (stereo not drawn)	7.30 to 8.00

---

- ASSAYED_TARGET: PI3Kβ (Homo sapiens, UniProt P42338)
- Construct: N-terminal His6-tagged recombinant full-length human p110β; His6 (N); purchased Millipore 14-603; host or cells: baculovirus infected Sf21 insect cells
- Sequence (P42338 whole entry): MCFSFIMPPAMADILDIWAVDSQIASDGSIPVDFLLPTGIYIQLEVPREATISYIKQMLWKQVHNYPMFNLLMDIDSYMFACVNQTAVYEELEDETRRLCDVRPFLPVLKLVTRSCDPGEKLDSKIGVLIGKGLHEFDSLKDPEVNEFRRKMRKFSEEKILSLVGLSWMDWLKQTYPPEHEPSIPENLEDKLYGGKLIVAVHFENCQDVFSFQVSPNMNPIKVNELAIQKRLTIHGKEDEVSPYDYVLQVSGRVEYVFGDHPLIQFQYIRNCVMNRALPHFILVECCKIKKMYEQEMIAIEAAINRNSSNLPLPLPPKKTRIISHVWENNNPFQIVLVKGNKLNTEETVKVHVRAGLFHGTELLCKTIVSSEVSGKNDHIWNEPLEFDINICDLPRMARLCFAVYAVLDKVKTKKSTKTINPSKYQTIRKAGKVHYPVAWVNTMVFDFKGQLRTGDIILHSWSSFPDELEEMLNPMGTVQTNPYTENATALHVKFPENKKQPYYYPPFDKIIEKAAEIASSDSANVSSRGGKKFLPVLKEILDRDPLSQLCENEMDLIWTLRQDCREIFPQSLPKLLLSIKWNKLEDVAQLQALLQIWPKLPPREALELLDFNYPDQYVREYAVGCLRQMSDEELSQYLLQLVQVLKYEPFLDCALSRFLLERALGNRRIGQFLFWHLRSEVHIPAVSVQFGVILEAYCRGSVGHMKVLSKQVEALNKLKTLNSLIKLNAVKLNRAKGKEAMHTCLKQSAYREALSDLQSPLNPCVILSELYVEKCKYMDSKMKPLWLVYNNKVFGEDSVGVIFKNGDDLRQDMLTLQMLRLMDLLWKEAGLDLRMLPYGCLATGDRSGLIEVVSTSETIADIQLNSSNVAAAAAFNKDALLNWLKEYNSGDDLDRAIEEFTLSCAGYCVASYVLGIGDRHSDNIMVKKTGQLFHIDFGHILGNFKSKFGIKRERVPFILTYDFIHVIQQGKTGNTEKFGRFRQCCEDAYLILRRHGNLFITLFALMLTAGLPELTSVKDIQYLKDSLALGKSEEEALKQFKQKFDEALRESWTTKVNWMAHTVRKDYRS
- Sequence (P27986 whole entry partner): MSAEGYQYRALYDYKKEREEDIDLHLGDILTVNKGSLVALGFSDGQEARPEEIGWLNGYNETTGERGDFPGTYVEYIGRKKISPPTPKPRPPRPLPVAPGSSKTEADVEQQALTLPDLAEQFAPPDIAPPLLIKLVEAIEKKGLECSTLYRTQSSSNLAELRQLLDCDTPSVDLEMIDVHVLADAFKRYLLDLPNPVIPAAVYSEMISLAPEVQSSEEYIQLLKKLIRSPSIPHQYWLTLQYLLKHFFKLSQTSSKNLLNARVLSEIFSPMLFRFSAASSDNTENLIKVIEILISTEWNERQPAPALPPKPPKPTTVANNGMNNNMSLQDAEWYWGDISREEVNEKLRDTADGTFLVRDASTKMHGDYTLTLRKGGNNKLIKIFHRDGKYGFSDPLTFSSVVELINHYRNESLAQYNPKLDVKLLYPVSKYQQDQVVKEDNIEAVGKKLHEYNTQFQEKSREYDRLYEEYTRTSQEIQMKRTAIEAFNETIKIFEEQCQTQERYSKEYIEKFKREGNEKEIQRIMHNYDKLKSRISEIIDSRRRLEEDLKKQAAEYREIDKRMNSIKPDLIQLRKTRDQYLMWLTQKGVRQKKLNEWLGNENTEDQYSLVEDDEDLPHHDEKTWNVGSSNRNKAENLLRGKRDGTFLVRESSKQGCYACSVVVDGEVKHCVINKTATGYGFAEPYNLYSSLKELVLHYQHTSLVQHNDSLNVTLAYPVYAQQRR
- PROTOCOL_DETAILS: PI3Kβ kinase assay (HTRF based PI3K inhibition assay)
- Format: biochemical
- TEST_CONTEXT: ratio of PI3K beta IC50 to PI3K alpha IC50 (A2 and A1)
PI3K beta average IC50/ PI3K alpha average IC50 by entry:
RECORDED_METRIC: PI3K beta average IC50/ PI3K alpha average IC50

COMPOUND	RESULT
C[C@@H]1CN(C[C@@](C)(O)COc2ccc3c(c2OCCc2ccc(F)cc2)N=C(NC(=O)c2cnc(N)nc2)N2CCN=C32)C[C@H](C)O1 (relative stereo)	9.66
CC(C)N(C[C@@H](O)COc1ccc2c(c1OCCc1ccc(F)cc1)N=C(NC(=O)c1cccnc1)N1CCN=C21)C(C)C	2.78
C[C@@H]1CN(C[C@@](C)(O)COc2ccc3c(c2OCCc2ccc(F)cc2)N=C(NC(=O)c2cccnc2)N2CCN=C32)C[C@H](C)O1 (relative stereo)	3.69
